These data points were gathered from PubChem BioAssay.

target: Potassium voltage-gated channel subfamily KQT member 1 (Homo sapiens) (UniProt P51787); assay: KCNQ1 potassium channel potentiators, confirmation, FluxOR thallium flux, CHO cells, duplicates (AID 493007); details: KCNQ1 cell line, FluxOR thallium flux fluorescence, at 10 µM; stronger effect = higher value, % of reference activator effect, buffer zero;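 as to potentiation: 0% = buffer-only wells and 100% = R-L3 activator control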
Sequence (P51787 whole entry, looked up): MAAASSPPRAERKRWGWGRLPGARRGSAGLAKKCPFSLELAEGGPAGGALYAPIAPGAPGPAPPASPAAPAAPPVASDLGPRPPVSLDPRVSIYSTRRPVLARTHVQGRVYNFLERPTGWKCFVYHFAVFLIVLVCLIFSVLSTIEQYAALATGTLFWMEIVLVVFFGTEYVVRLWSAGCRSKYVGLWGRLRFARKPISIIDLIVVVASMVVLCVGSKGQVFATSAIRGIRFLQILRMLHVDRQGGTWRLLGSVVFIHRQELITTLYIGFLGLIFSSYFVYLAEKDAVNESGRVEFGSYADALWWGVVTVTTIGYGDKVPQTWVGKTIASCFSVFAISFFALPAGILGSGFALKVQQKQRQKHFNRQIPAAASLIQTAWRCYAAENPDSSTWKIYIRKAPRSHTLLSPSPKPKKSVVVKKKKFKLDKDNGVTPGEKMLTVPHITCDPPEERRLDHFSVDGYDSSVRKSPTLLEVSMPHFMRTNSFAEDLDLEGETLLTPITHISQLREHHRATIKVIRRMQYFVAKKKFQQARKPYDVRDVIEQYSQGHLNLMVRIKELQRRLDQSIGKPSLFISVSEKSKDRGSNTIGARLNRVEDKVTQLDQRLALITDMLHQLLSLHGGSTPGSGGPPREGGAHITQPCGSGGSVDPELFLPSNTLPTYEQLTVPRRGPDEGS
Active and inactive are the calls of the source.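 The calls were made as follows: active = potentiation averaged over duplicate wells exceeding buffer-only control mean by more than 3 SD; inactive = the rest.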

compound	potentiation
COc1ccccc1N1C(=NC(=O)C(C)Oc2ccccc2)SC2CS(=O)(=O)CC21 (stereo not given)	inactive
S=c1nc[nH]c2c1[nH]c1ccc(Cl)cc12	inactive
CC1=C(C)/C(=N\OS(=O)(=O)c2ccccc2)C=CC1=O	inactive
O=C(C1CCCCC1)N1CCCC(c2nc3c(nnn3Cc3ccccc3)c(=O)[nH]2)C1 (stereo not given)	inactive
O=c1c2cc(Cl)ccc2nc(-c2ccccc2)n1O	82.5% (active)
O=c1cc(-c2ccccc2)cc(-c2ccccc2)n1O	87.5% (active)
COc1cccc(OC)c1C(=O)Nc1ccc(C(=O)NCc2ccccc2)cc1	inactive
Cc1ccc2sc(N(CCCN(C)C)C(=O)CCS(=O)(=O)c3ccccc3)nc2c1C	inactive
CC(Oc1ccc(Br)cc1)c1nc2c3ccccc3nc(=S)n2[nH]1 (stereo not given)	45.5% (active)
Cc1ccc(C(=O)Sc2cccccc2=O)cc1	37.5% (active)
CC1CCc2c(sc(NC(=O)C(=O)NCc3ccco3)c2C#N)C1 (stereo not given)	inactive
OC(C#CCCN1CCCCC1)(c1ccccc1)c1ccccc1	inactive
COc1ccccc1-c1cc(C(=O)Nc2cccnc2)no1	112% (active)
CCCCn1c(NS(=O)(=O)c2ccc(C)cc2)c(S(=O)(=O)c2ccccc2)c2nc3ccccc3nc21	inactive
O=C(Nc1nnc(-c2ccc3c(c2)CCCC3)o1)c1ccccc1	130% (active)
S=c1nc(C2CCCCC2)n(-c2ccccc2)[nH]1	117% (active)
Cc1nc(NCc2cccnc2)c2c3c(sc2n1)CC(C)CC3 (stereo not given)	118% (active)
COC(=O)N1C(=O)[C@@](Cc2ccccc2)(c2ccccc2)N1C(=O)OC	24% (active)
CCC1CCC2(CC1)NC(CO)(CO)CO2 (stereo not given)	inactive
Cc1cccc(/C=C/C(=O)c2cc(Br)ccc(=O)c2O)c1	90% (active)
CC1CCN(S(=O)(=O)c2cccc(C(=O)N3CCN(c4ccc(F)cc4)CC3)c2)CC1	inactive
Cc1ccc(C2c3c(-c4ccccc4O)n[nH]c3C(=O)N2Cc2ccncc2)cc1 (stereo not given)	inactive
CCC(NC(=O)CCc1nnc(-c2cc(C)on2)o1)C12CC3CC(CC(C3)C1)C2 (stereo not given)	inactive
O=S(=O)(CC(CN1CCCC1)N1CCCC1)c1ccc2ccccc2c1 (stereo not given)	inactive
Oc1ccc(N=Nc2ccc3c(c2)OCCO3)c2cccnc12	92.5% (active)
CC(C)CN=Cc1c(O)c([N+](=O)[O-])cc2oc3c(c12)CCCC3	inactive
CCCSc1ncnc2c1oc1ccccc12	inactive
Cc1ccc(C(=O)O/N=C(\N)Cc2cccs2)c(Cl)c1	inactive
O=C(/C=C/c1ccc(Br)cc1)NC(=S)Nc1ccc(S(=O)(=O)Nc2nccs2)cc1	inactive
COc1ccc(C(=O)NNC(=S)NC(=O)c2ccccc2)cc1	58.5% (active)
COc1ccc(S(=O)(=O)N2CCCC(C(=O)O)C2)cc1 (stereo not given)	inactive
Cc1ccc(C(=O)NC(=S)N(C)Cc2ccccc2)cc1	46% (active)
CCN1C(=O)/C(=C/c2ccc(OCc3ccc(C(=O)O)cc3)c(Cl)c2)NC1=S	inactive
O=C(NNc1nc2c(F)cc(F)cc2s1)c1ccccc1	inactive
FC(F)(F)c1cc(N2CCNCC2)c2ccccc2n1	inactive
Cn1c(O)c(N=NC(=S)Nc2ccccc2F)c2cc(S(=O)(=O)N3CCOCC3)ccc21	inactive
S=c1[nH]c(-c2ccc(Cl)cc2)cs1	206% (active)
COc1cccc(NC(=O)c2cncs2)c1	inactive
CCOC(=O)Nc1ccc2c(c1)N(CCCN(C)C)c1ccccc1CC2	inactive
CC(/C=N/n1c(-c2ccc(Cl)cc2)n[nH]c1=S)=C\c1ccco1	28% (active)
COc1ccc(C(=O)CSc2nnc(CNC(=O)c3ccc(OC)cc3)n2C)cc1	21% (active)
CCc1ccc(NC(=O)CSc2nc3ccsc3c(=O)n2CCC(=O)O)cc1	33% (active)
CCN(c1ccccc1)S(=O)(=O)c1ccc(OC)c(NC(=O)COc2ccc(C(C)=O)cc2)c1	inactive
O=C(COC(=O)CNC(=O)c1ccc(Cl)cc1Cl)Nc1cccc(S(=O)(=O)N2CCCC2)c1	inactive
CCCCCCCCN1[C@@H](CC(C)=O)c2cc(C(F)(F)F)ccc2S1(=O)=O	60.5% (active)

----------
biological target: Potassium voltage-gated channel subfamily KQT member 1 (Homo sapiens); assay: KCNQ1 potassium channel inhibitors, confirmation, cell-based, Tl flux, duplicate (AID 588353); conditions: KCNQ1 cell line, FluxOR thallium flux fluorescence, at 10 µM;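 also: 0% = buffer control ratio and 100% = XE991 inhibitor control ratio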
This is one part of the list. The source made the active and inactive calls.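 The calls were made as follows: active = primary screen active, with duplicate mean exceeding buffer control mean plus 3 SD of buffer wells (cut at about 28% in these data); inactive = the rest.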
Outcome codes: active, inactive

compound	study system	group
COc1cc(NC(=O)c2ccccc2NS(=O)(=O)c2ccc(Cl)s2)cc(OC)c1	Potassium voltage-gated channel subfamily KQT member 1 (Homo sapiens)	active
CCc1noc(C)c1C(=O)Oc1ccc(N(C)S(=O)(=O)c2ccc(C)c(C)c2)cc1	Potassium voltage-gated channel subfamily KQT member 1 (Homo sapiens)	active
O=C(CCN1c2ccccc2Sc2ccccc21)Nc1ccccc1	Potassium voltage-gated channel subfamily KQT member 1 (Homo sapiens)	active
CCc1cc(C(c2ccccc2OC)N2CCOCC2)c(NC(=O)c2ccccc2)s1 (stereo unspecified)	Potassium voltage-gated channel subfamily KQT member 1 (Homo sapiens)	active
CCNC(=O)c1ccc(OCC(=O)Nc2ccc(F)cc2)c(OC)c1	Potassium voltage-gated channel subfamily KQT member 1 (Homo sapiens)	inactive
Cc1ccccc1C(=O)OC1OC(=O)C(Cl)=C1Nc1ccccc1 (stereo unspecified)	Potassium voltage-gated channel subfamily KQT member 1 (Homo sapiens)	active

----------
target: Potassium voltage-gated channel subfamily KQT member 1 (Homo sapiens) (UniProt P51787); assay: KCNQ1 potassium channel potentiators, confirmation, FluxOR thallium flux, CHO cells, duplicates (AID 493007); settings: KCNQ1 cell line, FluxOR thallium flux fluorescence, at 10 µM; stronger effect = higher value, % of reference activator effect, buffer zero;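 as to potentiation: 0% = buffer-only wells and 100% = R-L3 activator control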
The source made the active and inactive calls.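 The calls were made as follows: active = potentiation averaged over duplicate wells exceeding buffer-only control mean by more than 3 SD; inactive = the rest.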
readout: potentiation

compound	result
Cc1onc(-c2ccccc2)c1C(=O)N1CCN(S(=O)(=O)c2ccc(OC(F)(F)F)cc2)CC1	inactive
O=C(NNc1cc(N2CCOCC2)nc(N2CCOCC2)n1)C12CC3CC(CC(C3)C1)C2	51% (active)
C/C(CCc1oc2c(Br)cc(Br)cc2c1-c1ccc(C)o1)=N\O	inactive
CON/C=N/C(=S)Nc1ncc(C(F)(F)F)cc1Cl	87.5% (active)
COC(=O)c1c(NC(=O)CC2SC(N)=NC2=O)sc2c1CCC(C)C2 (stereo not given)	inactive
N=c1ccn(CC(=O)c2ccc(-c3ccccc3)cc2)cc1	inactive
CN1CCN(Cc2ccc(Sc3ccc(Cl)cc3)c([N+](=O)[O-])c2)CC1	17.5% (active)
COc1ccc(-n2nc3c(c2NC(=O)c2ccc4c(c2)OCO4)CS(=O)(=O)C3)cc1	75.5% (active)
CN(C(=O)c1cc(COc2c(F)cccc2F)on1)C1CCOC1 (stereo not given)	inactive
O=C1CN(C(=O)CSc2nc3cc(Cl)ccc3c(=O)n2Cc2ccccc2)c2ccccc2N1	22.5% (active)
CCCCCn1c(=O)c(F)cn(Cc2ccc(OC)c([N+](=O)[O-])c2)c1=O	inactive
O=C(CCSc1ccccc1)Nc1ccc(S(=O)(=O)Nc2ncccn2)cc1	inactive
C#CCNc1cc(-c2ccccc2)nc2ncnn12	inactive
S=C(N/N=C/c1ccccc1Cl)Nc1cccc(Cl)c1Cl	71% (active)
CNCCC=C1c2ccccc2CCc2ccccc21	76% (active)
CCN(c1ccc(NS(=O)(=O)c2cc(Cl)ccc2Cl)cc1)C(C)C	inactive
CC(C)CCn1c(=O)c2ccccc2n2c(=S)[nH]nc12	inactive
Cc1ccc(C)c(NC(=S)N(Cc2ccco2)C(C)c2cccs2)c1 (stereo not given)	inactive
Cc1ccnc(NS(=O)(=O)c2ccc(NC(=O)C34CC5CC(CC(C5)C3)C4)cc2)n1	inactive
O=Cc1cc2ccccc2nc1SCCCF	inactive
CCN(C(=O)COC(=O)C(Cc1ccccc1)N1C(=O)c2ccccc2C1=O)C1CCS(=O)(=O)C1 (stereo not given)	inactive
COC(=O)C1C(=O)c2c([nH]c(C(=O)OCCSC)c2C)CC1C (stereo not given)	inactive
S=c1[nH]c(-c2ccccc2)cn1/N=C/c1cccc2ccccc12	65.5% (active)
COc1ccccc1OCCSc1nc2ccccc2n1CCC(=O)O	inactive
CCCCn1c(=S)[nH]c2ncccc2c1=O	34.5% (active)
S=c1[nH]c(-c2ccccc2)cn1/N=C/c1ccc(Br)cc1	inactive
CCOc1ccc(-n2cc(-c3ccccc3)c3c(=S)nc[nH]c32)cc1	192% (active)
Cc1ccc2[nH]c(=O)c(CN(CCCN(C)C)C(=S)NCCc3ccccc3)cc2c1	inactive
CC(=O)Nc1cccc(/C(C)=N/NC(=O)c2ccc(Cl)cc2Cl)c1	inactive
O=c1[nH]sc2ccccc12	inactive
CC(NC(=O)c1ccncc1)C(C)(C)C (stereo not given)	inactive
Cc1nn(C)c(C(=O)NC(=S)Nc2ccc([N+](=O)[O-])cc2)c1Cl	72% (active)
CCCN(Cc1ccccc1)C(=S)NC(=O)c1ccccc1[N+](=O)[O-]	177% (active)
Cc1nn(CC2CC2)c(=O)n1-c1ccc(F)cc1	inactive
COc1cccc(Oc2cnc(N)nc2-c2ccc(OC)cc2O)c1	inactive
C/C(=N\Nc1nc2ccccc2s1)c1ccc(Br)s1	inactive
CC1CCCC(NC(=S)NC(=O)c2cncc(Br)c2)C1C (stereo not given)	32% (active)
CC(C)C(=O)Nc1c(-c2ccccc2F)c(=O)c2ccccc2n1C	inactive
Cc1csc(N/N=C/c2ccc([N+](=O)[O-])cc2)n1	46% (active)
CC(C)(C)c1ccc(CN2N=Nc3ccccc3S2(=O)=O)cc1	inactive
O=C(COC(=O)c1cc(NS(=O)(=O)c2cccs2)ccc1O)Nc1cc(Cl)ccc1Cl	inactive
CN1CCN(CC/C=C2/c3ccccc3Sc3ccc(S(=O)(=O)N(C)C)cc32)CC1	inactive
Cn1c(=O)nc2n(Cc3ccccc3)c3ccccc3cc-2c1=O	inactive
O=C(CN(CC1CCCO1)C(=O)CNS(=O)(=O)c1ccc(Cl)cc1)NC1CCCC1 (stereo not given)	inactive
Cc1ccc(C)c(NC(=S)NNC(=O)c2csc3c2CCC(C)C3)c1 (stereo not given)	116% (active)
